Provenance of the data: ChEMBL document CHEMBL5113503

Readings of pIC50 for the listed compounds
Tested on: A549
Test: Antiproliferative activity human A549 cells assessed as cell growth inhibition measured after 72 hrs by CCK8 assay
Settings: A549, 72 h
pIC50: −log10 of the molar value.

structure	pIC50
C=CC(=O)Nc1ccc(C(=O)Nc2ccc(-c3cc(C)nc4noc(N)c34)cc2)c(C(F)(F)F)c1	< 5.00
C=CC(=O)Nc1ccc(NC(=O)Nc2ccc(-c3cc(C)nc4noc(N)c34)cc2)cc1	< 5.00
C=CC(=O)Nc1ccc(C(=O)Nc2ccc(-c3cc(C)nc4noc(N)c34)cc2)cc1Cl	5.26
C=CC(=O)Nc1ccc(C(=O)Nc2ccc(-c3cc(C)nc4noc(N)c34)cc2)cc1Br	< 5.00
C=CC(=O)Nc1cccc(NC(=O)Nc2ccc(-c3cc(C)nc4noc(N)c34)cc2)c1	< 5.00

###

Experiment: Cytotoxicity against human K562 cells assessed as cell growth inhibition measured after 72 hrs by CCK8 assay
Type: toxicity, cell-based
Recorded IC50 at 72 h for the following compounds

compound	IC50 at 72 h
C=CC(=O)Nc1ccc(C(=O)Nc2ccc(-c3cc(C)nc4noc(N)c34)cc2)cc1	> 10 µM
C=CS(=O)(=O)Nc1ccc(C(=O)Nc2ccc(-c3cc(C)nc4noc(N)c34)cc2)cc1	> 10 µM
C=CC(=O)N1CCC(C(=O)Nc2ccc(-c3cc(C)nc4noc(N)c34)cc2)CC1	> 10 µM
C=CC(=O)Nc1cccc(C(=O)Nc2ccc(-c3cc(C)nc4noc(N)c34)cc2)c1	> 10 µM
C=CC(=O)Nc1ccc(CC(=O)Nc2ccc(-c3cc(C)nc4noc(N)c34)cc2)cc1	> 10 µM
C=CC(=O)Nc1ccc(C(=O)Nc2ccc(-c3cc(C)nc4noc(N)c34)cc2)cc1C	2.77 µM
Cc1ccc(F)c(NC(=O)Nc2ccc(-c3cccc4[nH]nc(N)c34)cc2)c1 [LINIFANIB]	6.96 µM
C=CC(=O)Nc1ccc(C(=O)Nc2ccc(-c3cc(C)nc4noc(N)c34)cc2)cc1Cl	7.52 µM
Cc1cc(-c2ccc(NC(=O)Nc3ccc(Cl)c(C(F)(F)F)c3)cc2)c2c(N)onc2n1	1.73 µM
C=CC(=O)Nc1ccc(NC(=O)Nc2ccc(-c3cc(C)nc4noc(N)c34)cc2)cc1	> 10 µM
C=CC(=O)Nc1cccc(NC(=O)Nc2ccc(-c3cc(C)nc4noc(N)c34)cc2)c1	> 10 µM
C=CC(=O)Nc1cccc(CC(=O)Nc2ccc(-c3cc(C)nc4noc(N)c34)cc2)c1	> 10 µM
C=CC(=O)Nc1ccc(C(=O)Nc2ccc(-c3cc(C)nc4noc(N)c34)cc2)cc1OC	> 10 µM
C=CC(=O)Nc1ccc(C(=O)Nc2ccc(-c3cc(C)nc4noc(N)c34)cc2)cc1F	> 10 µM
C=CC(=O)Nc1ccc(C(=O)Nc2ccc(-c3cc(C)nc4noc(N)c34)cc2)cc1Br	> 10 µM
C=CC(=O)Nc1ccc(CCC(=O)Nc2ccc(-c3cc(C)nc4noc(N)c34)cc2)cc1	> 10 µM
C=CC(=O)Nc1ccc(C(=O)Nc2ccc(-c3cc(C)nc4noc(N)c34)cc2)c(C(F)(F)F)c1	> 10 µM

###

System: A549
Assay: Antiproliferative activity human A549 cells assessed as cell growth inhibition measured after 72 hrs by CCK8 assay
Details: A549, 72 h
metric: IC50

structure	endpoint_result
C=CC(=O)Nc1cccc(CC(=O)Nc2ccc(-c3cc(C)nc4noc(N)c34)cc2)c1	> 10 µM
C=CC(=O)Nc1ccc(C(=O)Nc2ccc(-c3cc(C)nc4noc(N)c34)cc2)cc1OC	> 10 µM
C=CC(=O)N1CCC(C(=O)Nc2ccc(-c3cc(C)nc4noc(N)c34)cc2)CC1	> 10 µM
C=CC(=O)Nc1cccc(C(=O)Nc2ccc(-c3cc(C)nc4noc(N)c34)cc2)c1	> 10 µM
C=CC(=O)Nc1ccc(CCC(=O)Nc2ccc(-c3cc(C)nc4noc(N)c34)cc2)cc1	> 10 µM
C=CC(=O)Nc1ccc(C(=O)Nc2ccc(-c3cc(C)nc4noc(N)c34)cc2)cc1	> 10 µM
Cc1ccc(F)c(NC(=O)Nc2ccc(-c3cccc4[nH]nc(N)c34)cc2)c1	8.34 µM
Cc1cc(-c2ccc(NC(=O)Nc3ccc(Cl)c(C(F)(F)F)c3)cc2)c2c(N)onc2n1	7.31 µM
C=CC(=O)Nc1ccc(CC(=O)Nc2ccc(-c3cc(C)nc4noc(N)c34)cc2)cc1	> 10 µM
